- Tested on: U2OS
- testDetails: cell viability relative to DMSO; higher = less toxic
- conditionDetails: 72 h; 1000 nM
Could you please report measured cell viability for the items listed next?
Answers are plain numbers, in %.

Illustrative cases are given below, each with its answer.
{"compound": "O=C(O)[C@@H]1C[C@@H](O)CN1 [L-hydroxyproline]", "propertyMeasured": "cell viability", "valueReported": 95.2}
{"compound": "CN(C(=O)CN(CCO)CC(=O)N(C)C(C)(C)Cc1ccccc1)C(C)(C)Cc1ccccc1 [oxethazaine]", "propertyMeasured": "cell viability", "valueReported": 97.2}
{"compound": "CCCCCCCC/C=C\\CCCCCCCC(N)=O [oleamide]", "propertyMeasured": "cell viability", "valueReported": 100}

Provide each entry's cell viability from the list below.
1. O=C(NC1(c2ccccc2)CC1)c1c(CN2CCC(N3CCCCC3)CC2)c(-c2cccc(C(F)(F)F)c2)nc2cc(Br)ccc12
2. O=C(OC(C(F)(F)F)C(F)(F)F)N1CCC(C(O)(c2ccc3c(c2)OCO3)c2ccc3c(c2)OCO3)CC1 [KML29]
3. O=C(Nc1cccc2cccnc12)c1ccc(N2C(=O)[C@@H]3[C@H](C2=O)[C@H]2C=C[C@@H]3C2)cc1 [exo-IWR-1]
4. O=C(O)CC/C=C\C[C@@H]1CO[C@H](c2ccccc2Cl)O[C@@H]1c1ccccc1O (racemic)
5. CCOC(=O)c1cc(C#N)c(N2CCC(C(=O)NS(=O)(=O)Cc3ccccc3)CC2)nc1C [AZD1283]
6. CCN(CC)CC(=O)Nc1c(C)cccc1C [lidocaine]

96
95.5
108
95.5
91.2
97.2

Provide each entry's cell viability from the list below.
1. Cc1nc2ccc(Oc3ccc(F)cc3)cc2c(=O)n1C[C@H]1CCCN(C(C)C)C1 [YIL-781]
2. CNC(=O)c1nn(C)c2c1C(C)(C)Cc1cnc(Nc3ccc(N4CCN(C)CC4)cc3)nc1-2
3. CCCCCCCCCCCCCCOc1ccc(C(=O)O)o1 [KD-023]
4. CN1CCN(c2ccc(OC(F)(F)F)c(Nc3ncc4c(n3)-c3c(c(C(N)=O)nn3CCO)CC4)c2)CC1
5. CN[C@H](C(=O)N[C@H](C(=O)N(C)[C@H](/C=C(\C)C(=O)O)C(C)C)C(C)(C)C)C(C)(C)c1ccccc1 [taltobulin]
6. N[C@@H]1CONC1=O [cycloserine-(D)]
7. O=C(Nc1cccc(C(F)(F)F)c1)Nc1cc(S(=O)(=O)NC2CC2)ccc1-c1ccsc1 [AGI-6780]
8. O=c1cc(-c2cccc3c2Sc2ccccc2S3)oc(N2CCOCC2)c1

94.4
47.4
95.8
46.5
18.5
96.7
92.3
100

Which value of cell viability has been reported for COc1ccc(OC)c(CN(C(C)=O)c2cc(F)ccc2Oc2ccccc2)c1 [DAA-1106] in the records? 96.5

---

- System: A549-ACE2 infected with SARS-CoV-2
- testDetails: cell count relative to DMSO; higher = less toxic
- conditionDetails: 3 µM; 24 h
propertyMeasured: cell count (%)
Numbers only, in %.

Illustrative cases are given below, each with its answer.
{"molecule": "Nc1ncnc2c1c(-c1cccc(OCc3ccccc3)c1)cn2C1CC(CN2CCCC2)C1 (stereo in doubt)", "readingUnit": "%", "cell count": 101}
{"molecule": "Oc1ccc2c(c1)CC[C@H](c1ccccc1)[C@@H]2c1ccc(OCCN2CCCC2)cc1", "readingUnit": "%", "cell count": 120}
{"molecule": "Clc1ccc2c(c1)N=C(N1CCNCC1)c1ccccc1N2", "readingUnit": "%", "cell count": 112}
{"molecule": "O=C(NCCN1CCC2(CC1)C(=O)NCN2c1cccc(F)c1)c1ccc2ccccc2c1", "readingUnit": "%", "cell count": 115}
{"molecule": "CC[C@@H](C(=O)[C@@H](C)[C@@H](O)[C@H](C)[C@@H]1O[C@@H]([C@@H](CC)C(=O)O)CC[C@@H]1C)[C@H]1O[C@]2(C=C[C@@H](O)[C@]3(CC[C@@](C)([C@H]4CC[C@](O)(CC)[C@H](C)O4)O3)O2)[C@H](C)C[C@@H]1C", "readingUnit": "%", "cell count": 110}

Now look at this entry.
Which value of cell count has been reported for `O=C(c1ccc(Nc2nccc(-c3cc4ccccc4s3)n2)cc1)N1CCC(N2CCCC2)CC1` in the records? 109

---

- System: Calu-3
- testDetails: cell viability relative to DMSO; higher = less toxic
- conditionDetails: 72 h; 10000 nM
Could you please report measured cell viability for the items listed next?
Numbers only, in %.

Illustrative cases are given below, each with its answer.
{"compound": "Cc1nc2ccc(Oc3ccc(F)cc3)cc2c(=O)n1C[C@H]1CCCN(C(C)C)C1 [YIL-781]", "cell viability (%)": 97.8}
{"compound": "C[C@@H](N)Cc1c[nH]c2ccc(O)cc12 [alpha-methylserotonin]", "cell viability (%)": 91.1}
{"compound": "CC(=O)CC(=O)O [lithium-acetoacetate]", "cell viability (%)": 100}
{"compound": "CCN1CCCC1CNC(=O)c1cc(S(=O)(=O)CC)c(N)cc1OC (stereo not given) [amisulpride]", "cell viability (%)": 103}

Which value of cell viability has been reported for Clc1ccc2c(c1)N=C(N1CCNCC1)c1ccccc1N2 [desmethylclozapine] in the records? 91.8

---

- Test system: HepG2
- testDetails: cell viability relative to DMSO; higher = less toxic
- conditionDetails: 72 h; 1000 nM
propertyMeasured: cell viability (%)
Numbers only, in %.

{"compound": "N[C@@H]1CONC1=O [cycloserine-(D)]", "cell viability [%]": 89.7}
{"compound": "CO/N=C1/C[C@@H](C(=O)NC[C@@H](O)c2ccccc2)N(C(=O)c2ccc(-c3ccccc3C)cc2)C1 [OT-R-antagonist-1]", "cell viability [%]": 97.7}
{"compound": "O=C(NCCN1CCC2(CC1)C(=O)NCN2c1cccc(F)c1)c1ccc2ccccc2c1", "cell viability [%]": 85.9}
{"compound": "CCCCCCCCCCCCCCCC(=O)OC[C@H](O)[C@H]1OC(=O)C(O)=C1O [L-ascorbyl-6-palmitate]", "cell viability [%]": 94.4}

Which value of cell viability has been reported for CCOc1ccc2nc3cc(N)ccc3c(N)c2c1 [ethacridine-lactate-monohydrate] in the records? 96.6

---

- Tested on: A549-ACE2 infected with SARS-CoV-2
- testDetails: morphology score (similarity to uninfected cells); higher = more like uninfected cells
- conditionDetails: 1 µM; 24 h
propertyMeasured: morphology score
Answers are plain numbers.

{"molecule": "Oc1ccc2c(c1)CC[C@H](c1ccccc1)[C@@H]2c1ccc(OCCN2CCCC2)cc1", "assayTarget": "A549-ACE2 infected with SARS-CoV-2", "propertyMeasured": "morphology score", "valueReported": 0.48}
{"molecule": "O=C(c1ccc(Nc2nccc(-c3cc4ccccc4s3)n2)cc1)N1CCC(N2CCCC2)CC1", "assayTarget": "A549-ACE2 infected with SARS-CoV-2", "propertyMeasured": "morphology score", "valueReported": 0.57}
{"molecule": "CN1CCN(S(=O)(=O)c2ccc(-c3cnc(N)c(C(=O)Nc4cccnc4)n3)cc2)CC1", "assayTarget": "A549-ACE2 infected with SARS-CoV-2", "propertyMeasured": "morphology score", "valueReported": -0.14}
{"molecule": "CCC(C)(C)C(=O)O[C@H]1C[C@@H](C)C=C2C=C[C@H](C)[C@H](CC[C@@H]3C[C@@H](O)CC(=O)O3)[C@H]21", "assayTarget": "A549-ACE2 infected with SARS-CoV-2", "propertyMeasured": "morphology score", "valueReported": 0.04}
{"molecule": "c1cc2c(cc1C1CCCCC1)c1c3n2CCNC3CCC1 (stereo unspecified)", "assayTarget": "A549-ACE2 infected with SARS-CoV-2", "propertyMeasured": "morphology score", "valueReported": 0.29}

Return morphology score measured with A549-ACE2 infected with SARS-CoV-2 given this molecule: Nc1ncnc2c1c(-c1cccc(OCc3ccccc3)c1)cn2C1CC(CN2CCCC2)C1 (stereo in doubt) 0.46

---

- Test system: HepG2
- testDetails: cell viability relative to DMSO; higher = less toxic
- conditionDetails: 72 h; 10 nM
propertyMeasured: cell viability (%)
Numbers only, in %.

{"molecule": "CNC(=O)c1nn(C)c2c1C(C)(C)Cc1cnc(Nc3ccc(N4CCN(C)CC4)cc3)nc1-2", "cell viability (%)": 102}
{"molecule": "NC(=S)N/N=C/c1ncccc1N", "cell viability (%)": 97.7}
{"molecule": "CC(C)(C)c1ccc(-c2nc3c(N4CCN(Cc5ccc6nccnc6c5)CC4)cccc3[nH]2)cc1", "cell viability (%)": 96.5}
{"molecule": "CC[N+](CC)(CCNC(=O)C(=O)NCC[N+](CC)(CC)Cc1ccccc1Cl)Cc1ccccc1Cl", "cell viability (%)": 105}
{"molecule": "Cc1cc(C)c(S(=O)(=O)Nc2ccccc2C(F)(F)F)c(C)c1", "cell viability (%)": 109}

Provide each entry's cell viability from the list below.
1. O=C(O)C1=CCCNC1
2. O=C1CCCCCCCCCCCCCCO1
3. COCCNC(=O)COc1ccc(OCCNC[C@H](O)COc2ccccc2)cc1
4. CSc1ccc(C(=O)N[C@@H]2CCCC[C@@H]2NC(=O)CNC(=O)c2cc(C(F)(F)F)ccc2NC(=O)NC(C)C)cc1
5. N[C@@H](Cc1c[nH]c2ccc(O)cc12)C(=O)O [5-hydroxytryptophan]
6. Nc1ncnc2c1ncn2CCOCP(=O)(O)O
7. CC(=O)Oc1cc(C(F)(F)F)ccc1C(=O)O
8. Cc1ccc(C(=O)C(C)CN2CCCCC2)cc1 (stereo not given)

97
93.8
106
95.8
97.4
99.6
90.5
95

Provide each entry's cell viability from the list below.
1. N[C@H]1C[C@@H]1c1ccccc1 (racemic)
2. CCCCCCCCCCCCCCCC(=O)OC[C@H](O)[C@H]1OC(=O)C(O)=C1O [L-ascorbyl-6-palmitate]
3. O=C(c1ccc(Nc2nccc(-c3cc4ccccc4s3)n2)cc1)N1CCC(N2CCCC2)CC1

103
93.2
108

Provide each entry's cell viability from the list below.
1. CC(=O)N1CCN(c2ccc(OC[C@@H]3CO[C@@](Cn4ccnc4)(c4ccc(Cl)cc4Cl)O3)cc2)CC1 (racemic)
2. Clc1ccc2c(c1)N=C(N1CCNCC1)c1ccccc1N2
3. CCC[C@@]1(CCc2ccccc2)CC(O)=C([C@H](CC)c2cccc(NS(=O)(=O)c3ccc(C(F)(F)F)cn3)c2)C(=O)O1
4. CC(C)c1cc(C(=O)N2Cc3ccc(CN4CCN(C)CC4)cc3C2)c(O)cc1O
5. CN1CCN(c2ccc(OC(F)(F)F)c(Nc3ncc4c(n3)-c3c(c(C(N)=O)nn3CCO)CC4)c2)CC1
6. CN(C)CC(=O)Nc1ccc2[nH]c(=O)c3ccccc3c2c1

[96.1, 105, 103, 103, 95, 99.3]

Provide each entry's cell viability from the list below.
1. CCCCCCC[N+](CC)(CC)CCCCc1ccc(Cl)cc1
2. CCCCc1nc2cc(/C=C/C(=O)NO)ccc2n1CCN(CC)CC
3. COc1cc(NC(=O)c2ccc(-c3ccc(Cl)cc3)o2)cc(OC)c1
4. Cc1cccc(N(C)C(=S)Oc2ccc3ccccc3c2)c1 [tolnaftate]
5. Nc1ccn([C@@H]2O[C@H](CO)[C@@H](O)[C@@H]2O)c(=O)n1
6. Cc1sc2c(c1C)C(c1ccc(Cl)cc1)=N[C@@H](CC(N)=O)c1nnc(C)n1-2

1: 124; 2: 109; 3: 109; 4: 100; 5: 100; 6: 94.3

Origin of the recorded values: the supplement of paper PMC13380429
